Each recorded value in this set is attributed to patent US8202513B2.

Listed next: entries and their corresponding pEC50.
Target: human Kv1.3 ion channel (Homo sapiens)
Construct: Human Jurkat cells (which endogenously express hKv1.3) or Chinese Hamster Ovary (CHO) cells stably transfected with hKv1.3 were used; endogenous in cells
Sequence (P22001 whole entry): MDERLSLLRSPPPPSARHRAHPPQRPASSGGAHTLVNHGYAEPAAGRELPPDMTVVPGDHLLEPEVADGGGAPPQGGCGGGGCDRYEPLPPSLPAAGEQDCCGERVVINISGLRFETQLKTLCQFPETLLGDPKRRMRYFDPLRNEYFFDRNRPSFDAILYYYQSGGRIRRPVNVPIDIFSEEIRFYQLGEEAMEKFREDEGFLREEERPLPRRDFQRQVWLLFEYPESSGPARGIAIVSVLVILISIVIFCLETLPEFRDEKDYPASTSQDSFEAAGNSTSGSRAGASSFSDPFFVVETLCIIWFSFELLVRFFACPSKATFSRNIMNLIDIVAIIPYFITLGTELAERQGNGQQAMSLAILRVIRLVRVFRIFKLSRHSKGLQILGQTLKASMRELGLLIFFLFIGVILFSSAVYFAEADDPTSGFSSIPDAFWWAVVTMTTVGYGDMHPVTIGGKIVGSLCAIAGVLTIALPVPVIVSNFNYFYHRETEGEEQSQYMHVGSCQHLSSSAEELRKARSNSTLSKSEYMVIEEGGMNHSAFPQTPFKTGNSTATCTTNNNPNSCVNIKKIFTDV
Assay: Inhibition of Kv1.3 currents, planar patch clamp
Details: Human Jurkat cells or CHO cells stably transfected with hKv1.3; averaged dose response data from 3 or more cells
pEC50: −log10 of the molar value.
Attribute Measured: pEC50

1) COc1c(Cl)c(C)c(C(C)=O)c(OCCN2CCOCC2)c1OCCC(C)c1ccc(F)cc1 (stereo not shown) = > 7.30
2) COc1c(Cl)c(C)c(C(C)=O)c(OCCN(C)C)c1OCCC(C)c1ccc(F)cc1 (stereo not shown) = 6.82 to 7.30
3) COc1c(Cl)c(C)c(C(C)=O)c(OCCN2CCC(F)(F)CC2)c1OCCC(C)c1ccc(F)cc1 (stereo not shown) = 6.82 to 7.30
4) COc1c(Cl)c(C)c(C(C)=O)c(OCCN2CC[C@@H](F)C2)c1OCCC(C)c1ccc(F)cc1 (stereo partly shown) = > 7.30

* * *

Target: human Kv1.3 ion channel (Homo sapiens)
Construct: Human Jurkat cells (which endogenously express hKv1.3) or Chinese Hamster Ovary (CHO) cells stably transfected with hKv1.3 were used; endogenous in cells; host or cells: Human Jurkat cells (endogenous) or CHO cells stably transfected with hKv1.3
Test: Inhibition of Kv1.3 currents, planar patch clamp
Format: cell-based
Conditions: Human Jurkat cells or CHO cells stably transfected with hKv1.3; averaged dose response data from 3 or more cells
Attribute Measured: EC50

1. COc1c(Cl)c(C)c(C(C)=O)c(OCCN2CCOCC2)c1CCCCc1ccccc1 [Example 26b] = < 0.05 µM
2. COc1cc(OCCCCOc2ccccc2)c(C(C)=O)c(OCCN2CCOCC2)c1 [reference compound] = > 0.3 µM
3. CC(=O)c1c(O)cccc1OCCCCOc1ccccc1 [reference compound] = > 0.3 µM
4. COc1c(Cl)c(C)c(C(C)=O)c(OCCCN2CCS(=O)(=O)CC2)c1OCCC(C)c1ccc(F)cc1 (centres unmarked) = < 0.05 µM
5. COc1c(Cl)c(C)c(C(C)=O)c(OCCc2ccccn2)c1CCCC(C)c1ccc(F)cc1 (centres unmarked) = < 0.05 µM
6. COc1c(C)c(C)c(C(C)=O)c(OCCN2CCOCC2)c1OCCCc1ccc(F)cc1 = 0.05 to 0.15 µM
7. COc1c(C)c(C)c(C(C)=O)c(OCCNC2CCCC2)c1OCCC(C)c1ccc(F)cc1 (centres unmarked) = < 0.05 µM
8. COc1cc(C)c(C(C)=O)c(OCCN2CCOCC2)c1OCCCc1ccccc1 [Example 33b] = 0.15 to 0.3 µM
9. COc1c(C)c(C)c(C(C)=O)c(OCCN2CCOCC2)c1OCCC(C)c1ccc(F)cc1 (centres unmarked) = < 0.05 µM
10. COc1c(Cl)c(C)c(C(C)=O)c(OCCNC2CCCC2)c1OCCCc1ccc(F)cc1 = < 0.05 µM
11. COc1c(Cl)c(C)c(C(C)=O)c(OCCn2cncn2)c1OCCC(C)c1ccc(F)cc1 (centres unmarked) = 0.05 to 0.15 µM
12. COc1c(Cl)c(C)c(C(C)=O)c(OCCN2CCOC[C@@H]2C)c1OCCC(C)c1ccc(F)cc1 (some centres unmarked) = 0.05 to 0.15 µM
13. COc1c(C)c(C)c(C(C)=O)c(OCCc2ccccn2)c1OCCC(C)c1ccc(F)cc1 (centres unmarked) = < 0.05 µM
14. COc1ccc(C(C)=O)c(NC(=O)CCc2ccccc2)c1 [reference compound] = > 0.3 µM
15. COc1c(Cl)c(C)c(C(C)=O)c(OCCN2CCOCC2)c1CCCC(C)c1ccc(F)cc1 (centres unmarked) [Example 31b] = 0.05 to 0.15 µM
16. COc1c(Cl)c(C)c(C(C)=O)c(OCCCN2CC[S+]([O-])CC2)c1OCCC(C)c1ccc(F)cc1 (centres unmarked) = 0.05 to 0.15 µM
17. COc1c(Cl)c(C)c(C(C)=O)c(OCCc2ccccn2)c1CCCCc1ccccc1 = < 0.05 µM
